All figures here come from patent US20120045438A1.

target: T1, human IL-13 R130Q variant (R110Q of the mature chain) (human, UniProt P35225 35-146, Biotinylated on amines (NHS-LC-biotin, 4:1) in ELISA, panning and competition assays. The letters are unchanged.); experiment: competition ELISA, biotinylated IL-13 R130Q binding to plate-bound IL-13Ra2, crude supernatant
T1 construct: R130Q counts from Met 1 of the signal peptide, R110Q on the mature chain; Bought from Peprotech; also called IL-13 R110Q; b-R130Q
ASSAY ENDPOINT: Percent Inhibition IL-13 R130Q (333 ng/ml) to Ra2 (%)

• Lc7Hc1 (antibody, V domains shown) VL: DIQLTQSPSSLSASVGDRVTITCRASKSISKYLAWYRQKPGKVPKLLIYSGSTLQSGVPSRFSGSGSGTDFTLTISSLQPEDVATYYGQQHNEYPYTFGQGTKLEIK VH: QVTLKESGPALVKPTQTLTLTCTFSGFSLSTYGMGVGWIRQPPGKALEWLAHIWWDDVKRYNPALKSRLTISKDTSKNQVVLTMTNMDPVDTATYYCARMGSDYDVWFDYWGQGTLVTVSS = 6
• Lc3Hc6 (antibody, V domains shown) VH: QVQLVESGGGVVQPGRSLRLSCAASGFSLSTYGMGVGWVRQAPGKGLEWVAHIWWDDVKRYNPALKSRFTISRDNSKNTLYLQMNSLRAEDTAVYYCARMGSDYDVWFDYWGQGTLVTVSS VL: AIQLTQSPSSLSASVGDRVTITCRASKSISKYLAWYQQKPGKAPKLLIYSGSTLQSGVPSRFSGSGSGTDFTLTISSLQPEDFATYYCQQHNEYPYTFGGGTKVEIK = 14
